Would you kindly list residual activity for each of these molecules?
target: KIT (human) (UniProt P10721); assay: radiometric filter-binding kinase assay, Kinase HotSpot; details: compound 0.5 µM; ATP 10 µM
Sequence (P10721 whole entry, looked up): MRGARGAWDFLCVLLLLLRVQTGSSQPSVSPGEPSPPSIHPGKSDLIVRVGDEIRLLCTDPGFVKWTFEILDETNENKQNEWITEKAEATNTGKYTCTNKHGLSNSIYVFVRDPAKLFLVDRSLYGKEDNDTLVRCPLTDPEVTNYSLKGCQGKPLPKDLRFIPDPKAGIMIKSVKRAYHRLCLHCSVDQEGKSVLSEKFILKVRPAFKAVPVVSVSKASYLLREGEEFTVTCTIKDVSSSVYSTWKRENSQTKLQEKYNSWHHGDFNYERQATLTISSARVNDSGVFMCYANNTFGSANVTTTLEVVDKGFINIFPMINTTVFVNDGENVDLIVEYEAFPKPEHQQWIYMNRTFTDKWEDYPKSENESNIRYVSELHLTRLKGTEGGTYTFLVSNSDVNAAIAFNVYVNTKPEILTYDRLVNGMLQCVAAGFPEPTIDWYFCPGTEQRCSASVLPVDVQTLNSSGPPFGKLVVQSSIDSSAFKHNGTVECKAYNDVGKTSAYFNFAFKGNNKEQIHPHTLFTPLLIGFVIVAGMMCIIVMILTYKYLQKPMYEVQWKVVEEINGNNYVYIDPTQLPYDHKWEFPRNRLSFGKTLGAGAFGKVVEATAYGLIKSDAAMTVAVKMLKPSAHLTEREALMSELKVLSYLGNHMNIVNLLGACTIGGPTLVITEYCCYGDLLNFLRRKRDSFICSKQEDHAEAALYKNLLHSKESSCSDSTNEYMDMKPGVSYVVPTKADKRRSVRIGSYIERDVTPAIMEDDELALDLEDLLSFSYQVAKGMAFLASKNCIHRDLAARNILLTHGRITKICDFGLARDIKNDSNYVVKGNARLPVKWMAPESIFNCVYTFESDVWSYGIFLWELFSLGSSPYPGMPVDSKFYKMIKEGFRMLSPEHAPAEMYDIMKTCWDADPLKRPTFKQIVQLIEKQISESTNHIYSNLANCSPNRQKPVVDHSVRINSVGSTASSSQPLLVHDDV
Answer with the number, then the unit.

What value of measured residual activity is listed for CO[C@H]1CC2CC[C@@H](C)[C@@](O)(O2)C(=O)C(=O)N2CCCC[C@H]2C(=O)OC([C@H](C)C[C@@H]2CC[C@@H](O)[C@H](OC)C2)CC(=O)[C@H](C)/C=C(\C)[C@@H](O)[C@@H](OC)C(=O)[C@H](C)C[C@H](C)/C=C/C=C/C=C/1C (some centres undefined) ?
95.7%

// query: O=C1Nc2ccc(Cl)cc2/C1=C/c1cc(Cl)c(O)c(Cl)c1
35%

// query: Nc1ccc2ncnc(NCCc3ccc(Oc4ccccc4)cc3)c2c1
99.7%

// query: CCOC(=O)c1c(C)[nH]c(/C=C2\C(=O)Nc3ccccc32)c1C
46.3%

// query: CCC(=O)Nc1ccc2ncnc(Nc3cccc(Br)c3)c2c1
90.4%

// query: CC(C)N(CCC(=O)c1ccc2ccccc2c1)Cc1ccccc1
86.5%

// query: N#CC(C#N)=C(N)/C(C#N)=C/c1ccc(O)cc1
92.4%

// query: Nc1ncnc2[nH]nc(Nc3ccc(F)cc3)c12
93.5%

// query: CNc1cc2c(Nc3cccc(Br)c3)ncnc2cn1
86.4%

* * *

Would you kindly list residual activity for each of these molecules?
target: CAMK2G (human) (UniProt Q13555); assay: radiometric filter-binding kinase assay, Kinase HotSpot; conditions: compound 0.5 µM; ATP 10 µM
Sequence (Q13555 whole entry, looked up): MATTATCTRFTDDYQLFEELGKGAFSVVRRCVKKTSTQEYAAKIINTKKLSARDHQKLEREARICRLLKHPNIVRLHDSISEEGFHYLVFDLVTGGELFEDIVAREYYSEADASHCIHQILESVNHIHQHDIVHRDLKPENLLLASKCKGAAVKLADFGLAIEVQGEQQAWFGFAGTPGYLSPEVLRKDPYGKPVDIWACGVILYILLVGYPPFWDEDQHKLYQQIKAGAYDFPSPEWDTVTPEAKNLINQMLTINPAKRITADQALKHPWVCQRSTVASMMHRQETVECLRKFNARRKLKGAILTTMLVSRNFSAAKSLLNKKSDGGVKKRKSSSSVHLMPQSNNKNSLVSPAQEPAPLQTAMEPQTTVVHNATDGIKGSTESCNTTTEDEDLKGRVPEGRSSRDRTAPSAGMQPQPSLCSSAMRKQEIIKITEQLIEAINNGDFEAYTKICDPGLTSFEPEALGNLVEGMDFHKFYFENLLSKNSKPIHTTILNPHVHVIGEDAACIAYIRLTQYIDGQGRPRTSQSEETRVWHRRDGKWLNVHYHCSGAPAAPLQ
// return numeric value only (unit: %, not printed)

What value of measured residual activity is listed for CCN(CC)CCNC(=O)c1c(C)[nH]c(/C=C2\C(=O)Nc3ccc(Cl)cc32)c1C ?
8.13

// query: CNc1cc2c(Nc3cccc(Br)c3)ncnc2cn1
105

// query: N#CC(C#N)=C(N)/C(C#N)=C/c1ccc(O)cc1
89.4

// query: CC(=O)c1ccc(N2CCOCC2)cc1O
90.2

// query: Cc1ccc(NC2=CC(=O)c3sc(C)nc3C2=O)cc1
90.4

// query: O=C1NC(=O)/C(=C/c2ccc3c(c2)OC(F)(F)O3)S1
102

// query: Cc1ccc(S(=O)(=O)/C=C/C#N)cc1
103

// query: CCN(CC)C(=O)c1ccc(Nc2nc(OCC3CCCCC3)c3nc[nH]c3n2)cc1
95.2

// query: CC(C)N(CCC(=O)c1ccc2ccccc2c1)Cc1ccccc1
97.7

// query: CCC(=O)Nc1ccc2ncnc(Nc3cccc(Br)c3)c2c1
105

// query: COc1ccc(COc2ccc(Cc3cnc(N)nc3N)cc2OC)cc1
94.4

// query: COc1ccc2c(c[n+](C)c3c4cc5c(cc4ccc23)OCO5)c1OC
95.9

// query: Nc1cccc(-c2cc3c(Oc4cccc(O)c4)ncnc3[nH]2)c1
105

// query: Nc1ncnc2[nH]nc(Nc3ccc(F)cc3)c12
119

// query: CCN(CC)CCNC(=O)c1c(C)[nH]c(/C=C2\C(=O)Nc3ccc(F)cc32)c1C
25.1

// query: O=c1cc(N2CCOCC2)oc2c1ccc1ccccc12
95.5

// query: CNC(=O)c1cc(Oc2ccc(NC(=O)Nc3ccc(Cl)c(C(F)(F)F)c3)cc2)ccn1
108

// query: Cc1[nH]c(/C=C2\C(=O)Nc3ccc(S(=O)(=O)N(C)c4cccc(Cl)c4)cc32)c(C)c1C(=O)N1CCN(C)CC1
119

// query: CC[n+]1c(/C=C/N(C)c2ccccc2)n(-c2ccccc2)c2ccc(-c3nc4ccccc4s3)cc21
103

// query: c1ccc(-c2n[nH]cc2-c2ccnc3ccccc23)nc1
85.9

// query: Nc1ccc2ncnc(NCCc3ccc(Oc4ccccc4)cc3)c2c1
118

// query: CC#CC(=O)Nc1cc2c(Nc3ccc(F)c(Cl)c3)ncnc2cn1
97.7

// query: O=C(Nc1cccc(Nc2nccc(Nc3cccc(C(F)(F)F)c3)n2)c1)C1CC1
108

// query: Nc1ncnc2c1c(-c1ccc(Oc3ccccc3)cc1)cn2C1CCCC1
95

// query: N#C/C(=C(/N)Sc1ccc(N)cc1)c1ccccc1C(F)(F)F
106

// query: COc1cc2ncnc(Nc3cccc(Cl)c3)c2cc1OC
97.3

// query: Oc1cccc(-c2nc(N3CCOCC3)c3oc4ncccc4c3n2)c1
100

// query: CCCC(=O)Oc1ccc2[nH]c(C(=O)c3cc4ccccc4[nH]3)cc2c1
99.4

// query: O=C1NC(=O)C(c2cn(CCCn3ccnc3)c3ccccc23)=C1Nc1ccccc1
90.9

// query: CO[C@H]1CC2CC[C@@H](C)[C@@](O)(O2)C(=O)C(=O)N2CCCC[C@H]2C(=O)OC([C@H](C)C[C@@H]2CC[C@@H](O)[C@H](OC)C2)CC(=O)[C@H](C)/C=C(\C)[C@@H](O)[C@@H](OC)C(=O)[C@H](C)C[C@H](C)/C=C/C=C/C=C/1C (stereo partly specified)
101

// query: O=C1NC(=O)c2c1c1c3ccccc3n3c1c1c2c2ccccc2n1C1CCC3O1
8.36

// query: Cc1ccc(Nc2nccc(N(C)c3ccc4c(C)n(C)nc4c3)n2)cc1S(N)(=O)=O
106

// query: O=S(=O)(c1cccc2cnccc12)N1CCCNCC1
93.1

// query: O=C1Nc2ccc(Cl)cc2/C1=C/c1cc(Cl)c(O)c(Cl)c1
119

// query: c1ccc(-c2n[nH]c3c2oc2ccccc23)cc1
93.3

// query: CCOC(=O)c1c(C)[nH]c(/C=C2\C(=O)Nc3ccccc32)c1C
97.6

* * *

Would you kindly list residual activity for each of these compounds?
molecular target: CDK1 CCNB1 (human) (UniProt P06493+P14635); assay: radiometric filter-binding kinase assay, Kinase HotSpot; conditions: compound 0.5 µM; ATP 10 µM
Sequence (P06493 whole entry, looked up): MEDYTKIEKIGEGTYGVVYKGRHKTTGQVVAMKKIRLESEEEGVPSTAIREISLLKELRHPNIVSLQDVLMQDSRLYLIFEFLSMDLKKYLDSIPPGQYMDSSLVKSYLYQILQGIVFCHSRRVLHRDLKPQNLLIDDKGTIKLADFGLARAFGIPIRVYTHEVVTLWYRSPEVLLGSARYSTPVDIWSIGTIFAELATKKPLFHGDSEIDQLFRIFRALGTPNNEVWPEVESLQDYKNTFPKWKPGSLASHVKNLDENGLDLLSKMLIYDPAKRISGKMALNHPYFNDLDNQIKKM
Sequence (P14635 whole entry, looked up): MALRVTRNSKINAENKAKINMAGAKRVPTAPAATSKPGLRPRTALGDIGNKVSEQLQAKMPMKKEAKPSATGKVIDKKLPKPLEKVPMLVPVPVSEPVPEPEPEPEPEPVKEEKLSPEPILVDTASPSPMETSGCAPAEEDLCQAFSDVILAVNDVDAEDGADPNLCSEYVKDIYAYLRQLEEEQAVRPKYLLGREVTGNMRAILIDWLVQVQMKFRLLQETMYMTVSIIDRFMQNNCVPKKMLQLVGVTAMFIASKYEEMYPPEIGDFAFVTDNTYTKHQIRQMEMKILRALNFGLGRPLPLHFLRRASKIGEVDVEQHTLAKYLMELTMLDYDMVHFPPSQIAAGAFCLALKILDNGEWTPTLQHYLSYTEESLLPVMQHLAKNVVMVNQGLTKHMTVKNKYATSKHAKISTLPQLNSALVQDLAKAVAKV
// return numeric value only (unit: %, not printed)

What value of measured residual activity is listed for CNc1cc2c(Nc3cccc(Br)c3)ncnc2cn1 ?
104

// query: Nc1ccc2ncnc(NCCc3ccc(Oc4ccccc4)cc3)c2c1
96.3

// query: COc1cc2ncnc(Nc3cccc(Cl)c3)c2cc1OC
90.3

// query: O=S(=O)(c1cccc2cnccc12)N1CCCNCC1
92.7

// query: COc1ccc2c(c[n+](C)c3c4cc5c(cc4ccc23)OCO5)c1OC
84.4

// query: O=C1Nc2ccc(Cl)cc2/C1=C/c1cc(Cl)c(O)c(Cl)c1
96.3

// query: O=C1NC(=O)/C(=C/c2ccc3c(c2)OC(F)(F)O3)S1
99.6

// query: O=c1cc(N2CCOCC2)oc2c1ccc1ccccc12
85.5

// query: CCOC(=O)c1c(C)[nH]c(/C=C2\C(=O)Nc3ccccc32)c1C
100

// query: CCC(=O)Nc1ccc2ncnc(Nc3cccc(Br)c3)c2c1
89.5

// query: N#CC(C#N)=C(N)/C(C#N)=C/c1ccc(O)cc1
111

// query: CCN(CC)CCNC(=O)c1c(C)[nH]c(/C=C2\C(=O)Nc3ccc(F)cc32)c1C
103

// query: CC(=O)c1ccc(N2CCOCC2)cc1O
86.8

// query: COc1ccc(COc2ccc(Cc3cnc(N)nc3N)cc2OC)cc1
91.3

// query: CCN(CC)C(=O)c1ccc(Nc2nc(OCC3CCCCC3)c3nc[nH]c3n2)cc1
62.4

// query: N#C/C(=C(/N)Sc1ccc(N)cc1)c1ccccc1C(F)(F)F
105

// query: c1ccc(-c2n[nH]c3c2oc2ccccc23)cc1
87.7

// query: c1ccc(-c2n[nH]cc2-c2ccnc3ccccc23)nc1
106

// query: Oc1cccc(-c2nc(N3CCOCC3)c3oc4ncccc4c3n2)c1
108

// query: COC[C@H]1OC(=O)c2coc3c2[C@@]1(C)C1=C(C3=O)[C@@H]2CCC(=O)[C@@]2(C)C[C@H]1OC(C)=O
101

// query: CO[C@H]1CC2CC[C@@H](C)[C@@](O)(O2)C(=O)C(=O)N2CCCC[C@H]2C(=O)OC([C@H](C)C[C@@H]2CC[C@@H](O)[C@H](OC)C2)CC(=O)[C@H](C)/C=C(\C)[C@@H](O)[C@@H](OC)C(=O)[C@H](C)C[C@H](C)/C=C/C=C/C=C/1C (stereo partly specified)
103

* * *

target: CHEK1 (human) (UniProt O14757); assay: radiometric filter-binding kinase assay, Kinase HotSpot; conditions: compound 0.5 µM; ATP 10 µM
Sequence (O14757 whole entry, looked up): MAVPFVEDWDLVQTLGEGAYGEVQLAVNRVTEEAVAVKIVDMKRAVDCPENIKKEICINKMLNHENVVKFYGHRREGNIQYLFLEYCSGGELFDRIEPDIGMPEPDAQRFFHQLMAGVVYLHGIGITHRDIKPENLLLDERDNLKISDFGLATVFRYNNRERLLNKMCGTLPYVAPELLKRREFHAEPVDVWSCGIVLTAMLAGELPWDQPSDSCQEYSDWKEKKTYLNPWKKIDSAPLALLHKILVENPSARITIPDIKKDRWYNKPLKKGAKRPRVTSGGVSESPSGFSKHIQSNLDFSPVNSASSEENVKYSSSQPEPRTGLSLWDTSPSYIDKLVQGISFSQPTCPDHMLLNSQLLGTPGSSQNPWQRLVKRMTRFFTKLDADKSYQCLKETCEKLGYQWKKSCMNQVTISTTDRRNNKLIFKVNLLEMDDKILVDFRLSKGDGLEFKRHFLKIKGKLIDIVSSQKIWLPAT
MEASURED QUANTITY: residual activity (%)
// return numeric value only (unit: %, not printed)

What value of measured residual activity is listed for CO[C@H]1CC2CC[C@@H](C)[C@@](O)(O2)C(=O)C(=O)N2CCCC[C@H]2C(=O)OC([C@H](C)C[C@@H]2CC[C@@H](O)[C@H](OC)C2)CC(=O)[C@H](C)/C=C(\C)[C@@H](O)[C@@H](OC)C(=O)[C@H](C)C[C@H](C)/C=C/C=C/C=C/1C (some centres undefined) ?
107

// query: Nc1ncnc2c1c(-c1ccc(Oc3ccccc3)cc1)cn2C1CCCC1
113

// query: Cc1ccc(Nc2nccc(N(C)c3ccc4c(C)n(C)nc4c3)n2)cc1S(N)(=O)=O
110

// query: CCC(=O)Nc1ccc2ncnc(Nc3cccc(Br)c3)c2c1
114

// query: CCN(CC)CCNC(=O)c1c(C)[nH]c(/C=C2\C(=O)Nc3ccc(F)cc32)c1C
29.2

// query: O=c1cc(N2CCOCC2)oc2c1ccc1ccccc12
104

// query: Nc1cccc(-c2cc3c(Oc4cccc(O)c4)ncnc3[nH]2)c1
66.2

// query: Cc1ccc(S(=O)(=O)/C=C/C#N)cc1
97.5

// query: CNC(=O)c1cc(Oc2ccc(NC(=O)Nc3ccc(Cl)c(C(F)(F)F)c3)cc2)ccn1
173
